Hello, the source for this data is ChEMBL document CHEMBL2029225, in case you need it.

tested on: Plasmodium falciparum; experiment: Antiplasmodial activity against Plasmodium falciparum 3D7 assessed as inhibition of [3H]hypoxanthine incorporation after 18 hrs by liquid scintillation counting; assay type: functional, organism-based
endpoint-label: EC50 (nM)

>>> print(df.to_string())
                            compound_string          tested_target  reported_value
0  c1cc2c[n+](c1)CCCCCCCCCCCCCc1ccc[n+](c1)CCCCCCCCCCCCCc1ccc[n+](c1)CCCCCCCCCCCCC2  Plasmodium falciparum              53
1              C[n+]1cccc(CCCCCCCCCCCCCO)c1  Plasmodium falciparum            1500
2                    OCCCCCCCCCCCCCc1cccnc1  Plasmodium falciparum            7500
3  COc1ccc(C[n+]2cccc(CCCCCCCCCCCCCI)c2)cc1  Plasmodium falciparum             220

###

# selectivity ratio values compiled below
assay: Selectivity ratio of EC50 for human HEK293 cells to EC50 for TbAt1-deficient bloodstraem form of Trypanosoma brucei brucei 427 (BS221); type: ADME, cell-based; conditions: read-out: Ratio EC50
endpoint-label: selectivity ratio

>>> df
                            compound_string  qualifier_operator  reported_value
0           CCCC[n+]1cccc(CCCCCCCCCCCCCO)c1                   =             299
1           CCCC[n+]1cccc(CCCCCCCCCCCCCI)c1                   >            1000
2              C[n+]1cccc(CCCCCCCCCCCCCI)c1                   =             540
3  COc1ccc(C[n+]2cccc(CCCCCCCCCCCCCO)c2)cc1                   =             437

###

tested on: Leishmania major; experiment: Antileishmanial activity against promastigotes of Leishmania major Friedlin after 72 hrs by alamar blue assay; assay type: functional, organism-based
For each record, check the reported EC50: if it is below 800 nM write Yes, else write No.

In [3]: df
Out[3]:
                             compound_string     tested_target  cat
 0  OCCCCCCCCCCCCCc1ccc[n+](CCCCCCCCCCCCCc2cccnc2)c1  Leishmania major   No
 1  COc1ccc(C[n+]2cccc(CCCCCCCCCCCCCI)c2)cc1  Leishmania major   No
 2              C[n+]1cccc(CCCCCCCCCCCCCO)c1  Leishmania major   No
 3  COc1ccc(C[n+]2cccc(CCCCCCCCCCCCCO)c2)cc1  Leishmania major  Yes
 4  OCCCCCCCCCCCCCc1ccc[n+](CCCCCCCCCCCCCc2ccc[n+](CCCCCCCCCCCCCc3ccc[n+](CCCCCCCCCCCCCc4cccnc4)c3)c2)c1  Leishmania major   No
 5                    OCCCCCCCCCCCCCc1cccnc1  Leishmania major   No
 6           CCCC[n+]1cccc(CCCCCCCCCCCCCO)c1  Leishmania major  Yes
 7           CCCC[n+]1cccc(CCCCCCCCCCCCCI)c1  Leishmania major  Yes
 8  c1cc2c[n+](c1)CCCCCCCCCCCCCc1ccc[n+](c1)CCCCCCCCCCCCCc1ccc[n+](c1)CCCCCCCCCCCCCc1ccc[n+](c1)CCCCCCCCCCCCC2  Leishmania major  Yes
 9   N=C(N)c1ccc(OCCCCCOc2ccc(C(=N)N)cc2)cc1  Leishmania major   No
10  OCCCCCCCCCCCCCc1ccc[n+](CCCCCCCCCCCCCc2ccc[n+](CCCCCCCCCCCCCc3cccnc3)c2)c1  Leishmania major   No
11  c1cc2c[n+](c1)CCCCCCCCCCCCCc1ccc[n+](c1)CCCCCCCCCCCCCc1ccc[n+](c1)CCCCCCCCCCCCC2  Leishmania major  Yes
12              C[n+]1cccc(CCCCCCCCCCCCCI)c1  Leishmania major  Yes
